System: CEM cells HIV-1 protection, formazan growth assay
PROTOCOL SUMMARY: NCI AIDS Antiviral Assay
ASSAY CONTEXT: measured here: growth of uninfected CEM cells
pIC50: −log10 of the molar value.
Recorded pIC50, one value per entry.

COMPOUND	CENSORING OPERATOR	pIC50
Cc1[nH]c(=O)[nH]c(=O)c1CN1CCCCC1	<	5.19
C#CCN1C(=O)c2ccccc2S1(=O)=O.[C-]#[O+].[C-]#[O+].[C-]#[O+].[C-]#[O+].[C-]#[O+].[C-]#[O+].[Co].[Co]	=	5.15
CC(=O)NC(CC(C)C(C)=O)(C(=O)O)C(=O)O (configuration not stated)	<	3.70
CCOC(=O)CCC(NC(=O)c1ccc(Nc2nc3ccccc3nc2C(=O)OCC)s1)C(=O)OCC (configuration not stated)	<	3.70
CCOC(=O)/C(=C\c1ccc(-c2ccccc2)cc1)C(C)=O	<	4.34
CCOC(=O)C(=O)Nc1ccc(Cl)cc1C	=	3.48
Nc1nc([O-])c2c(n1)[n+](C1OC(CO)C(O)C1O)cn2CCO (configuration not stated)	<	3.12
C=CCCCC12CCCc3cccc(c31)NC2=O (configuration not stated)	=	4.20
CN(C)c1ccc(N=O)cc1	=	5.95
O=C(CN1CCN(C(=O)OCc2ccccc2)CCN(CC(=O)N2CCCCC2)CCN(C(=O)OCc2ccccc2)CC1)N1CCCCC1	=	4.99
Cc1cc(C)nc(NC(=O)Nc2cccc(C(F)(F)F)c2)c1	<	3.70
CC(C)(C)OC(=O)CC(NC(=O)OC(C)(C)C)C(=O)NC(C(=O)O)C(O)c1ccccc1 (configuration not stated)	=	4.03
O=C1CC2(c3ccccc3)CCCCC2=NN1 (configuration not stated)	<	3.70
Cn1c(=Nc2ccc(Cl)cc2)sc2ccccc21	=	4.49
COC(=O)C1CC(=O)N(C)c2sc(C)c(C)c2C1=O (configuration not stated)	=	3.95
O=C(Nc1ccccc1C(=O)NCCCO)/C(=C/c1ccccc1O)NC(=O)c1ccccc1	<	3.70
O=C(CC1CCN(C(=O)c2ccccc2)C(Cc2c[nH]c3ccccc23)C1O)N1CCCC1 (configuration not stated)	<	3.70
O=C1C(=Cc2ccc([N+](=O)[O-])o2)C(=O)N(CCc2ccccc2)S(=O)(=O)N1CCc1ccccc1	<	5.28
COCN1C(=O)[C@@H]2CCCN2C(=O)c2ccc([N+](=O)[O-])cc21	<	3.70
O=P(O)(Cc1ccccc1)OCC1(O)OCC(O)C(O)C1O (configuration not stated)	<	3.70
Oc1ccc(-c2nc(-c3ccccc3)c(-c3ccccc3)[nH]2)cc1	=	4.57
Cc1ccc(Nc2cn(COCc3ccccc3)c(=O)[nH]c2=O)cc1	<	3.70

----------
System: CEM cells HIV-1 protection, formazan growth assay
PROTOCOL SUMMARY: NCI AIDS Antiviral Assay
ASSAY CONTEXT: measured here: growth of uninfected CEM cells

COMPOUND	IC50
NC(N)=N/N=C/c1oc(-c2ccc(S(=O)(=O)O)o2)c(-c2ccc(S(=O)(=O)O)o2)c1[N+](=O)[O-]	> 513 µM
S=C1NC2(CCCCCC2)NN1c1ccccc1	30.9 µM
S=C(N/N=C\c1ccccn1)N/N=C\c1ccccn1	0.813 µM
OC1CN2CCC[C@@H](O)[C@@H]2C1O (stereo partly drawn)	> 200 µM
CCOC(=O)/C(O)=C(/C=NC(=S)c1ccncc1)C(=O)OCC	> 200 µM
O=Cc1cc(C(=O)Nc2ccc(/C=C/c3ccc(NC(=O)c4cc(C=O)c5cccnc5c4O)cc3S(=O)(=O)O)c(S(=O)(=O)O)c2)c(O)c2ncccc12	> 100 µM
CCOC(=O)C(=CC[C@@H]1N[C@H](C(N)=O)Cc2c1[nH]c1ccccc21)C(=O)OCC	> 33.9 µM
Cc1c(N=Nc2ccc(Cl)cc2)c(C)n(C2OC(CO)C(O)C(O)C2O)c(=S)c1C#N (stereo not drawn)	34.7 µM
CCCCCCCCCCCCCCCCCCOC(CO)COP(=O)(O)OCC1OC(n2cc(C)c(=O)[nH]c2=O)CC1F (stereo not drawn)	2 µM
Clc1cccc(Cl)c1C1SCc2nc3ccccc3n21 (stereo not drawn)	21.9 µM
COCOc1cc(OCOC)cc(C(=O)Oc2ccccc2)c1	> 200 µM
N#Cc1c(N2CCCC2)ncn(Cc2ccccc2)c1=S	> 200 µM
Cc1cc(S(=O)(=O)Nc2nc3ccccc3[nH]2)c(S)cc1Cl	55 µM
O=S(=O)(c1ccccc1)c1nccs1	575 µM
CC12CCCC3(CC(=O)C(C)(C)C3C(=O)C1)C2 (stereo not drawn)	> 200 µM
COCC(C)(C)N=CN1CCc2ccccc2C1	> 1000 µM
CN1CCN(C(=S)N(C(=O)c2ccc(Cl)cc2)c2ccccc2)CC1	> 13.8 µM
CCOC(=O)COc1ccc2c(C)c(CCN(CC)CC)c(=O)oc2c1	> 631 µM
C(=C(c1ccccc1)c1ccccc1)=C(c1ccccc1)c1ccccc1	> 28.8 µM
CCOP(=O)(Nc1ccccc1P(=O)(OCC)OCC)OCC	> 200 µM
O=C1NC2(CCCC2)C(=O)N2CCCC12 (stereo not drawn)	> 129 µM
Cc1cccc(NC(=O)Nc2ccccc2F)n1	> 200 µM
Cc1cc(N(CCC#N)CCC#N)ccc1N=Nc1ccc(Br)cc1	> 6.92 µM
